- METHOD DESCRIPTION: lipophilicity (K' from retention times on C18 HPLC)
- Type: physicochemical
- CONDITION: c18 hplc, ch3oh/kh2po4, pH 7

{"MOLECULE": "C[C@H](CCC(=O)CCC(=O)O)[C@H]1CC[C@H]2[C@@H]3[C@@H](O)C[C@@H]4C[C@H](O)CC[C@]4(C)[C@H]3CC[C@]12C [Example 24-ISOP]", "chromatographic logD": 0.326}

* * *

- METHOD DESCRIPTION: acidity constant (pKa)
- Type: physicochemical
- CONDITION: pKa value

{"COMPOUND": "C[C@H](CCC(=O)CCC(=O)O)[C@H]1CC[C@H]2[C@@H]3[C@@H](O)C[C@@H]4C[C@H](O)CC[C@]4(C)[C@H]3CC[C@]12C [Example 24-ISOP]", "pKa": 4.2}

* * *

// values below are reported CMC
- METHOD DESCRIPTION: critical micellar concentration (CMC), detergency
- Type: physicochemical
- CONDITION: Table I
- Procedure: -critical micellar concentration (CMC) or "detergency", were evaluated according to conventional methods. Critical micellar concentration. comparison with UDCA, GUDCA and TUDCA
MEASURED ENDPOINT: CMC (mM)

{"MOLECULE": "C[C@H](CCC(=O)O)[C@H]1CC[C@H]2[C@@H]3[C@@H](O)C[C@@H]4C[C@H](O)CC[C@]4(C)[C@H]3CC[C@]12C [UDCA, ursodeoxycholic, reference compound]", "UNIT TAG": "mM", "VALUE OBSERVED": 19}
{"MOLECULE": "C[C@H](CCC(=O)CCC(=O)O)[C@H]1CC[C@H]2[C@@H]3[C@@H](O)C[C@@H]4C[C@H](O)CC[C@]4(C)[C@H]3CC[C@]12C", "UNIT TAG": "mM", "VALUE OBSERVED": 9}
{"MOLECULE": "C[C@H](CCC(=O)NCCS(=O)(=O)O)[C@H]1CC[C@H]2[C@@H]3[C@@H](O)C[C@@H]4C[C@H](O)CC[C@]4(C)[C@H]3CC[C@]12C", "UNIT TAG": "mM", "VALUE OBSERVED": 8}
{"MOLECULE": "C[C@H](CCC(=O)NCC(=O)O)[C@H]1CC[C@H]2[C@@H]3[C@@H](O)C[C@@H]4C[C@H](O)CC[C@]4(C)[C@H]3CC[C@]12C", "UNIT TAG": "mM", "VALUE OBSERVED": 12}

* * *

- METHOD DESCRIPTION: solubility in water
- Type: physicochemical
- CONDITION: water, Solubility

{"MOLECULE": "C[C@H](CCC(=O)CCC(=O)O)[C@H]1CC[C@H]2[C@@H]3[C@@H](O)C[C@@H]4C[C@H](O)CC[C@]4(C)[C@H]3CC[C@]12C [Example 24-ISOP]", "solubility": "20 µM"}

* * *

- METHOD DESCRIPTION: critical micellar concentration (CMC), detergency
- Format: physicochemical
- CONDITION: Table III
// values below are reported CMC

{"MOLECULE": "C[C@H](CCC(=O)O)[C@H]1CC[C@H]2[C@@H]3[C@@H](O)C[C@@H]4C[C@H](O)CC[C@]4(C)[C@H]3CC[C@]12C [UDCA, ursodeoxycholic, reference compound]", "CMC": "19 mmol/L"}
{"MOLECULE": "C[C@H](CCC(=O)CCC(=O)O)[C@H]1CC[C@H]2[C@@H]3[C@@H](O)C[C@@H]4C[C@H](O)CC[C@]4(C)[C@H]3CC[C@]12C", "CMC": "9 mmol/L"}
{"MOLECULE": "C[C@H](CCC(=O)O)[C@H]1CC[C@H]2[C@@H]3[C@@H](O)C[C@@H]4C[C@H](O)CC[C@]4(C)[C@H]3C[C@H](O)[C@]12C", "CMC": "60 mmol/L"}
{"MOLECULE": "C[C@H](CCC(=O)CCC(=O)O)[C@H]1CC[C@H]2[C@@H]3[C@@H](O)C[C@@H]4C[C@H](O)CC[C@]4(C)[C@H]3C[C@H](O)[C@]12C", "CMC": "28 mmol/L"}

* * *

- METHOD DESCRIPTION: solubility in water
- Type: physicochemical
- CONDITION: water, water solubility
// values below are reported solubility

{"MOLECULE": "C[C@H](CCC(=O)CCC(=O)O)[C@H]1CC[C@H]2[C@@H]3[C@@H](O)C[C@@H]4C[C@H](O)CC[C@]4(C)[C@H]3C[C@H](O)[C@]12C", "solubility": "1800 µM"}
{"MOLECULE": "C[C@H](CCC(=O)CCC(=O)O)[C@H]1CC[C@H]2[C@@H]3[C@@H](O)C[C@@H]4C[C@H](O)CC[C@]4(C)[C@H]3CC[C@]12C", "solubility": "13 µM"}

* * *

// values below are reported pKa
- METHOD DESCRIPTION: acidity constant (pKa)
- Assay type: physicochemical
- CONDITION: pKa

{"MOLECULE": "C[C@H](CCC(=O)CCC(=O)O)[C@H]1CC[C@H]2[C@@H]3[C@@H](O)C[C@@H]4C[C@H](O)CC[C@]4(C)[C@H]3C[C@H](O)[C@]12C [Example 24-PUCA]", "pKa": 3.85}
{"MOLECULE": "C[C@H](CCC(=O)CCC(=O)O)[C@H]1CC[C@H]2[C@@H]3[C@@H](O)C[C@@H]4C[C@H](O)CC[C@]4(C)[C@H]3CC[C@]12C [Example 24-PUDCA]", "pKa": 3.9}

* * *

- METHOD DESCRIPTION: acidity constant (pKa)
- Format: physicochemical
- CONDITION: Acidity constant; read-out: pKa value
MEASURED ENDPOINT: pKa

{"COMPOUND": "C[C@H](CCC(=O)O)[C@H]1CC[C@H]2[C@@H]3[C@@H](O)C[C@@H]4C[C@H](O)CC[C@]4(C)[C@H]3CC[C@]12C [UDCA, ursodeoxycholic, reference compound]", "VALUE OBSERVED": 6}

* * *

- Test system: bile flow and biliary secretion
- METHOD DESCRIPTION: effect on bile flow and biliary lipid secretion when administered i.v. to rat
- Assay type: in vivo
- CONDITION: rat, i.v.; Table II
// values below are reported SMAB (mean maximum biliary secretion)
MEASURED ENDPOINT: SMAB (mean maximum biliary secretion) (µmol/min/kg)

{"COMPOUND": "C[C@H](CCC(=O)O)[C@H]1CC[C@H]2[C@@H]3[C@@H](O)C[C@@H]4C[C@H](O)CC[C@]4(C)[C@H]3CC[C@]12C [UDCA, ursodeoxycholic, reference compound]", "MEASURED ENDPOINT": "SMAB (mean maximum biliary secretion)", "UNIT TAG": "µmol/min/kg", "VALUE OBSERVED": 3.02}
{"COMPOUND": "C[C@H](CCC(=O)CCC(=O)O)[C@H]1CC[C@H]2[C@@H]3[C@@H](O)C[C@@H]4C[C@H](O)CC[C@]4(C)[C@H]3CC[C@]12C", "MEASURED ENDPOINT": "SMAB (mean maximum biliary secretion)", "UNIT TAG": "µmol/min/kg", "VALUE OBSERVED": 2.62}
{"COMPOUND": "C[C@H](CCC(=O)NCCS(=O)(=O)O)[C@H]1CC[C@H]2[C@@H]3[C@@H](O)C[C@@H]4C[C@H](O)CC[C@]4(C)[C@H]3CC[C@]12C", "MEASURED ENDPOINT": "SMAB (mean maximum biliary secretion)", "UNIT TAG": "µmol/min/kg", "VALUE OBSERVED": 3.40}
{"COMPOUND": "C[C@H](CCC(=O)NCC(=O)O)[C@H]1CC[C@H]2[C@@H]3[C@@H](O)C[C@@H]4C[C@H](O)CC[C@]4(C)[C@H]3CC[C@]12C", "MEASURED ENDPOINT": "SMAB (mean maximum biliary secretion)", "UNIT TAG": "µmol/min/kg", "VALUE OBSERVED": 2.10}
